Target: furin, P09958;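 note: purified furin at 1:10 enzyme:substrate in 50 mM HEPES pH 7.5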
Sequence (P09958 whole entry): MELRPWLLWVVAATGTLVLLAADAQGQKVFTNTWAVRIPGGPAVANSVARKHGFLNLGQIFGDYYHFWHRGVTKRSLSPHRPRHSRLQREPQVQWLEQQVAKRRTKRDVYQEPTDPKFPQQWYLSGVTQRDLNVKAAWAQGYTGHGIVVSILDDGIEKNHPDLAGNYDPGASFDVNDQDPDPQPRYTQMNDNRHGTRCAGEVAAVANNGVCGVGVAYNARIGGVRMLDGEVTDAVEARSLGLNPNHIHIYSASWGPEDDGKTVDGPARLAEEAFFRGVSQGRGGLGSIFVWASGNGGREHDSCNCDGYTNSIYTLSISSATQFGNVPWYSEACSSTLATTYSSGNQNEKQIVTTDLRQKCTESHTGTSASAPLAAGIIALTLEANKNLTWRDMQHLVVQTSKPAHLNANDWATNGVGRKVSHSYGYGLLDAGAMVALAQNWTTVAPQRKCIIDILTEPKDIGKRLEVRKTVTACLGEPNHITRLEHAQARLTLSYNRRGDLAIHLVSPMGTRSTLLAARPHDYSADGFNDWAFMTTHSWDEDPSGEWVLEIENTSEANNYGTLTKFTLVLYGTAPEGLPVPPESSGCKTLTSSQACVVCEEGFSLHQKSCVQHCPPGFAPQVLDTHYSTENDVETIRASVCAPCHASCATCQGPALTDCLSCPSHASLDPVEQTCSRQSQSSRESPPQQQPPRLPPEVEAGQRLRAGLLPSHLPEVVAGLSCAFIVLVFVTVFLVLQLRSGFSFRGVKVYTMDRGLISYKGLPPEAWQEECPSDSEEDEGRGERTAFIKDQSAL
Test: furin cleavage Z-score vs untreated control; higher = more cleavage, active = 3.5 or more, inactive = 1 or less, 8 variable residues between constant flanks
Details: 30 min
Some of the results follow. No count for the full screen is at hand.
Readout Name: furin cleavage Z-score
Numbers only.

CARAARSLLQAGNASASA [FS-1679] ... 5.01

Required: furin cleavage Z-score, one value per sequence below.
1. CATSSSRKRSAGNASASA [FS-572]
2. CAHFLSQTKQAGNASASA [HC946]

Reply:
[1.99, 0.398]
